# subject of test: EGFR on the surface of human tumour cells (A431, H292) (human, UniProt P00533 25-1210)
# experiment description: cell-based or functional assay
property label: % inhibition of EGFR phosphorylation at 100 nM binder, cell-based assay (%)

binder | value
E46 (designed binder) 10Fn3 domain: MGVSDVPRDLEVVAATPTSLLISWQVGSVVYQYYRITYGETGGNSPVQEFTVPRDVLTATISGLKPGVDYTITVYAVTDYKPKPDGPHIYQAVPISINYRTEIDKPSQ | 77
E54 (designed binder) 10Fn3 domain: MGVSDVPRDLEVVAATPTSLLISWKASYTGYNYYRITYGETGGNSPVQEFTVPRDVMTATISGLKPGVDYTITVYAVTDFYNPDTHQYTYRRIPISINYRTEIDKPSQ | 76.1
E51 (designed binder) 10Fn3 domain: MGVSDVPRDLEVVAATPTSLLISWGGHRAVYQYYRITYGETGGNSPVQEFTVPGAVYTATISGLKPGVDYTITVYAVTDYYNPDTHEYKYHQYPISINYRTEIDKPSQ | 82.8
E53 (designed binder) 10Fn3 domain: MGVSDVPRDLEVVAATPTSLLISWSVGGMIYQYYRITYGETGGNSPVQEFTVPGMVTTATISGLKPGVDYTITVYAVTDYYNPATHEYKYHQTPISINYRTEIDKPSQ | 79.8
E52 (designed binder) 10Fn3 domain: MGVSDVPRDLEVVSATPTSLLISWQVPRPMYQYYRITYGETGGNSPVQEFTVPGGVRTATISGLKPGVDYTITVYAVTDYWFKEYREDPISINYRTEIDKPSQ | 75.3

These entries and their values trace back to patent US20180037631A1.
